Reference source for all entries: ChEMBL document CHEMBL1201862

- study.target: UniProtKB P55789
- Sequence (P55789 whole entry): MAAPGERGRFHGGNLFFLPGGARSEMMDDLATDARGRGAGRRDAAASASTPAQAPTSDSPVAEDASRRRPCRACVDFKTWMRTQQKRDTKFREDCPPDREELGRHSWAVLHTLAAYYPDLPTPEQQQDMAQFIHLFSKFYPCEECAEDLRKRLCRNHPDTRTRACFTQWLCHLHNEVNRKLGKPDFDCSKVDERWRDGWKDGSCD
- assay.method.text: ALR-catalysed DTT oxidation blockers – biochemical, H2O2 detection, luminescence, cherry-pick, dose response (AID 493248)
Active and inactive are the calls of the source. Rule as the data show it: actives have a measured AC50 and inactives only a lower limit.
Form field: AC50 (one value per entry).

Known AC50 results, listed for orientation:
C/C(=N\NC(=O)CCCNc1cccc(C)c1)c1ccncc1; 2590 nM (active)
C/C(=N\Nc1ccc(Cl)cc1)c1ccccn1; 1030 nM (active)
CN(C)c1ccc(NC(=O)Nc2ccc3snnc3c2)cc1; 204 nM (active)
O=[N+]([O-])c1ccc(CSC2=NCCN2)cc1; 40 nM (active)
CCC(C)C(=O)N1CCc2cc(-c3csc(N)n3)ccc21 (centres undefined); 300 nM (active)

Q: Entry under review: `Cc1ccc(N2NC(=O)/C(=C\c3cc4c(cc3[N+](=O)[O-])OCO4)C2=O)cc1C` . Reported AC50?
Ans: 321 nM (active)

Q: Entry under review: `Oc1ccc(Br)cc1-c1cc(-c2ccco2)[nH]n1` . Reported AC50?
Ans: 3510 nM (active)

Q: Entry under review: `Cc1cc(-c2nnc(S)n2/N=C/C(Cl)=C/c2ccccc2)[nH]n1` . Reported AC50?
Ans: 109 nM (active)

Q: Entry under review: `Fc1ccc(CSc2nnc(-c3cnccn3)n2Cc2ccco2)cc1` . Reported AC50?
Ans: 3850 nM (active)
